# Tested on: tau stress granules
# assay-explanation: SY5Y-tT1 tau arsenite assay (tau stress granules per cell)
# Format: cell-based
# particulars: SY5Y-tT1 cells, 2 hours compound, 90 minutes arsenite, 50% reduction of granules per cell, read-out: IC50, Inhibitor Activity of Tau Stress Granules
pIC50: −log10 of the molar value.
endpoint: pIC50

>>> observed_value("Cc1cc(-c2ccc(N3CCN(C4CCCC4)CC3)cc2)sc1C(=O)N1CC[C@H](N)C1 [Compound 153]")
"5.70 to 6.00"
>>> observed_value("Cc1cc(-c2ccc(N3CCN(C4CCCCC4)CC3)cc2)sc1C(=O)N1CC[C@H](N)C1 [Compound 148]")
"5.70 to 6.00"
>>> observed_value("Cc1cc(-c2ccc(C3CCN(C)CC3)cc2F)sc1C(=O)N1CC[C@H](N)C1 [Compound 128]")
"5.70 to 6.00"
>>> observed_value("Cc1cc(-c2ccc(C(C)N(C)C)cc2)sc1C(=O)N1CC[C@H](N)C1 (stereo partly shown) [Compound 200]")
"5.22 to 5.70"
>>> observed_value("COCCN1CCC(c2ccc(-c3cc(C)c(C(=O)N4CC[C@H](N)C4)s3)cc2)CC1 [Compound 142]")
"6.00 to 6.30"
>>> observed_value("Cc1cc(-c2ccc(C3CCN(CC4CCCCO4)CC3)cc2)sc1C(=O)N1CC[C@H](N)C1 (stereo partly shown) [Compound 119]")
"6.00 to 6.30"
>>> observed_value("Cc1cc(-c2ccc(C3CCN(C4CCSCC4)CC3)cc2)sc1C(=O)N1CC[C@H](N)C1 [Compound 167]")
"5.70 to 6.00"
>>> observed_value("Cc1cc(-c2ccc(N3CCN(C4CCOCC4)CC3)cc2)sc1C(=O)N1CC[C@H](N)C1 [Compound 151]")
"5.22 to 5.70"
>>> observed_value("CCCc1cc(-c2ccc(C3CCN(C(C)C)CC3)cc2)sc1C(=O)N1CC[C@H](N)C1 [Compound 110]")
"5.70 to 6.00"
>>> observed_value("Cc1cc(-c2ccc(C3CCN(C4CCC4)CC3)cc2)sc1C(=O)N1CC[C@H](N)C1 [Compound 181]")
"6.00 to 6.30"

For each entry beneath this line, provide reported pIC50.
1. Cc1cc(-c2ccc(C3CCN(CC4CCCOC4)CC3)cc2)sc1C(=O)N1CC[C@H](N)C1 (stereo partly shown) [Compound 139]
2. CCN1CCN(c2ccc(-c3cc(C)c(C(=O)N4CC[C@H](N)C4)s3)cc2)CC1 [Compound 155]
3. Cc1cc(-c2ccc(C3CCN(C4CCCCC4)CC3)cc2)sc1C(=O)N1CC[C@H](N)C1 [Compound 179]
4. Cc1cc(-c2ccc(C3CCN(C)CC3)cc2Cl)sc1C(=O)N1CC[C@H](N)C1 [Compound 120]
5. COc1cc(-c2cc(C)c(C(=O)N3CC[C@H](N)C3)s2)ccc1C1CCN(C)CC1 [Compound 111]
6. Cc1cc(-c2ccc(C3CCN(C)CC3)cc2)sc1C(=O)N1CC[C@H](N)C1 [Compound 201]

Return:
1: 6.00 to 6.30; 2: 6.00 to 6.30; 3: 6.00 to 6.30; 4: 5.70 to 6.00; 5: 5.22 to 5.70; 6: > 6.30
